- target: T1, SNTA1, Q13424
- T1 sequence (Q13424 82-180, limits assumed, looked up): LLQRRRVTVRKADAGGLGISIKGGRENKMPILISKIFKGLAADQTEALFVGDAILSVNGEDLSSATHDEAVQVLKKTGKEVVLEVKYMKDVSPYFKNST
- test-summary: holdup assay
- Design: key: below the threshold = too weak to quantify, mostly under pKd 3.1 to 4
- test-context: plain residues with an end cap or a label only (N-terminal biotin on a linker: ado-ado)
measured-attribute: pKd
API note: the answer field is a bare number with no unit suffix.

Reference set, count: 4
{"binder": "TNSKQGETTV [FZD1, Q9UP38]", "pKd": 4.51}
{"binder": "AKADAQESRL [PLCB2, Q00722]", "pKd": 4.2}
{"binder": "SKQFDKNAYV [CLDN10, P78369]", "pKd": 3.55}
{"binder": "KEKASTETEC [TRPM1, Q7Z4N2]", "pKd": 3.77}

Give a short answer stating reported pKd for PLATCDETSI [SEMA4F, O95754] .
4.01

Give a short answer stating reported pKd for KLQNPNQSVV [TYRP1, P17643] .
3.99

Give a short answer stating reported pKd for FLVTEFNVML [DFNB31, Q9P202] .
3.73

Give a short answer stating reported pKd for GVHSNDHSVV [LPAR1, Q92633] .
3.68

Give a short answer stating reported pKd for GTMFLRETSL [GUCY1A2, P33402] .
5.64

Give a short answer stating reported pKd for KKTPVSRSHL [SLC22A3, O75751] .
3.53

Give a short answer stating reported pKd for IGHEDLETAV [DGKI, O75912] .
5.18

Give a short answer stating reported pKd for PEKVSNTTVV [IGSF5, Q9NSI5] .
3.93

Give a short answer stating reported pKd for HYPASPDSWV [CTNND2, Q9UQB3] .
4.17

Give a short answer stating reported pKd for EAVTVESTSL [SLC22A11, Q9NSA0] .
3.65
